B1: library; numbered along this chain (parent)
chain: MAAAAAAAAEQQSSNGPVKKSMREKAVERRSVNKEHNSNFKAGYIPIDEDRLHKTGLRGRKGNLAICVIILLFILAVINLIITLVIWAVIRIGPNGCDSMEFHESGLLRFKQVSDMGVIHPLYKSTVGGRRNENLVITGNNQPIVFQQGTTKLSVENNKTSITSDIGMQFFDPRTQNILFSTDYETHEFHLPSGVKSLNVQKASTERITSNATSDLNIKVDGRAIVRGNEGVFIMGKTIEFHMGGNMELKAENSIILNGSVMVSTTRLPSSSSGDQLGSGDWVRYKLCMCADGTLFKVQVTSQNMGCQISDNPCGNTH

# Variants of: B1
# Assay details: SGCB cell-surface expression functional score (HA stain, bin4 vs bin1, normalised to synonymous) (log10 ratio); higher = more cell-surface SGCB (functional)
Reported endpoint: SGCB cell-surface expression functional score (log10)

1) L257A: -0.23
2) N304P: -0.2
3) Q142M: 0.97
4) A291N: 0.17
5) H36Y: 0.15
6) K111R: -0.25
7) N211I: -0.69
8) I255R: -0.91
9) A3G: 0.02
10) Q201T: -0.09
11) G59N: 0
12) R30N: 0.64
13) V118F: -0.06
14) Q142P: -1.08
15) N253H: 0.8
16) I218R: -1.49
17) K237V: 0.29
18) D275Y: 0.17
19) S193T: -0.16
20) G139N: 0.52
21) P46H: 0.31
22) F180M: -1.82
